- Test system: Plasmodium berghei
- Test method notes: Screen against P. berghei liver stage (PbLuc), transformed with Luciferase, at 2uM
- Type: functional, HepG2
- Measurement context: tested at 2 uM
Screen size: about 68,000 compounds; about 2,700 (4%) showed an effect of 50% or more. The sample holds strong results, similar compounds and a random draw of the others, so the mix is not that of the screen.
Property name: INHIBITION (%)

- Compound: "CN(C)c1ncccc1CNC(=O)NCC(c1cccs1)N(C)C (configuration not stated)"
  System name: "Plasmodium berghei"
  Property name: "INHIBITION"
  Recorded value: 31.55
- Compound: "CN(C)c1ccc(NC(=O)NCc2cccnc2N(C)C)cn1"
  System name: "Plasmodium berghei"
  Property name: "INHIBITION"
  Recorded value: 1.63
- Compound: "CCc1c(C(=O)N2CCC3(CCCN(CCO)C3=O)C2)csc1C (configuration not stated)"
  System name: "Plasmodium berghei"
  Property name: "INHIBITION"
  Recorded value: 40.64
- Compound: "Cc1ccc(N2CC[C@H]3O[C@@H](C(=O)NCc4ccco4)CC[C@H]32)nn1"
  System name: "Plasmodium berghei"
  Property name: "INHIBITION"
  Recorded value: 4.64
- Compound: "CC(NC(=O)NCc1cccnc1N(C)C)c1ccc(F)cc1 (configuration not stated)"
  System name: "Plasmodium berghei"
  Property name: "INHIBITION"
  Recorded value: 59.21
- Compound: "O=C(Nc1cccc(CNCc2ccsc2)c1)C1CC1"
  System name: "Plasmodium berghei"
  Property name: "INHIBITION"
  Recorded value: 30.92
- Compound: "COCCN(CCN(C)C)C(=O)NC1CCc2ccccc2C1 (configuration not stated)"
  System name: "Plasmodium berghei"
  Property name: "INHIBITION"
  Recorded value: 62.39
- Compound: "COCCN(CCOC)C(=O)NC1CCCCC1"
  System name: "Plasmodium berghei"
  Property name: "INHIBITION"
  Recorded value: -20.08
- Compound: "O=C(Nc1cccc(CNCc2cccs2)c1)C1CCCC1"
  System name: "Plasmodium berghei"
  Property name: "INHIBITION"
  Recorded value: -5.15
- Compound: "CS(=O)(=O)CCNC1CCCN(Cc2noc(C3CC3)n2)C1 (configuration not stated)"
  System name: "Plasmodium berghei"
  Property name: "INHIBITION"
  Recorded value: 33.52
- Compound: "O=C(Nc1cccc(CNCc2cccs2)c1)C1CC1"
  System name: "Plasmodium berghei"
  Property name: "INHIBITION"
  Recorded value: 62.82
- Compound: "COCC(=O)Nc1nn(Cc2ccc(F)cc2)cc1Cl"
  System name: "Plasmodium berghei"
  Property name: "INHIBITION"
  Recorded value: -20.28
